- Test system: Wolbachia pipientis
- assay.name: Anti-Wolbachia Cell-Based Screen
- Format: functional
- Set-up: scale not given: in the data most compounds retested in dose-response had high values
- applied.conditions: 5 µM
In all, about 48,000 compounds went through this assay and about 13,000 (27%) showed an effect of 50% or more. The list shows a part of the results.
For each of the compounds below, state its Percent Effect.
Numbers only, in %.

Example entries begin here.
structure.as.smiles | unit.string | Percent Effect
Cc1cccc(CN2C[C@@H]3CCCO[C@@H]3[C@H](NS(C)(=O)=O)C2)n1 | % | 6.966
CCc1ccc(CN2C[C@H](OC)[C@H]3COC[C@H]32)o1.O=C(O)C(F)(F)F | % | 106.4
Cc1ncsc1CN1C[C@@H](OCc2ccccn2)[C@H]2OCCC[C@H]21.O=C(O)C(F)(F)F.O=C(O)C(F)(F)F.O=C(O)C(F)(F)F | % | -3.232

Report Percent Effect for every entry below.
1. Cc1cccc(CN2C[C@@H](NC(=O)C3CCC3)[C@H]3COC[C@H]32)n1
2. O=C(O)C(F)(F)F.O=C(O)C(F)(F)F.O=S(=O)(c1cccnc1)N1C[C@@H]2COC[C@]2(CN2CCOCC2)C1
3. Cc1[nH]c2c(C)cccc2c1CC(=O)N(C)CCN(C)C.O=C(O)CC(O)(CC(=O)O)C(=O)O
4. CS(=O)(=O)N1CCO[C@@H]2CN(Cc3ccncc3)C[C@@H]2C1.O=C(O)C(F)(F)F.O=C(O)C(F)(F)F
5. Cc1ccc(CN2C[C@H]3OC(=O)N(Cc4ccccn4)[C@H]3C2)o1

output:
5.905
-9.184
103
13.84
4.449

---

- Tested on: Wolbachia pipientis
- assay.name: Anti-Wolbachia Cell-Based Screen
- Format: functional
- Design: scale not given: in the data most compounds retested in dose-response had high values
- applied.conditions: 5 µM
Screen size: about 48,000 compounds; about 13,000 (27%) showed an effect of 50% or more. This is one part of the list.
Could you label it met if measured Percent Effect is 20% or higher, and not met otherwise?

Recorded results for 3 compounds are shown here.
compound | group
Cc1ccc(N2CCC3(CCCN3Cc3ccn(C)n3)CC2)nn1.O=C(O)C(F)(F)F | not met
CC(C)CN1CCCC2(CCN(c3ccc(C#N)cn3)C2)C1.O=C(O)C(F)(F)F (stereo not given) | not met
Cl.O=C(C1CC1)N1CCOC2(CCNCC2)C1 | met

Moving on to the next compound.
input: Percent Effect >= 20% for COCC1CC2(CCN(c3cccc(C)n3)CC2)CN1C(C)C.O=C(O)C(F)(F)F.O=C(O)C(F)(F)F (stereo not given) ?
output: met

---

- Tested on: Wolbachia pipientis
- assay.name: Anti-Wolbachia Cell-Based Screen
- Format: functional
- Parameters: scale not given: in the data most compounds retested in dose-response had high values
- applied.conditions: 5 µM
Screen size: about 48,000 compounds; about 13,000 (27%) showed an effect of 50% or more. The list shows a part of the results.
measurement.label: Percent Effect

Before answering, review these 3 worked examples.
molecule | observed.value
O=C(O)C(F)(F)F.O=C(O)C(F)(F)F.O=C([C@H]1CN(Cc2cccnc2)C[C@H]2OCC[C@@H]12)N1CCCO1 | -1.635%
Cc1cccc(CN2CCC3(CCCN(CC(=O)N(C)C)C3)C2)n1.O=C(O)C(F)(F)F (centres undefined) | 2.241%
O=C(N1CCCO1)[C@]12COC[C@H]1CN(Cc1cccnc1)C2.O=C(O)C(F)(F)F.O=C(O)C(F)(F)F | 2.039%

Now consider a different molecule.
input: State its Percent Effect for this molecule: Cc1nnc(N2CCCC3(CN(Cc4ccncc4)CCO3)C2)o1.O=C(O)C(F)(F)F.O=C(O)C(F)(F)F (centres undefined)
output: -4.396%
